Origin of measurements: patent US9884063B2

# SYSTEM: TNKS2 (Homo sapiens, UniProt Q9H2K2)
# Sequence (Q9H2K2 1-1166): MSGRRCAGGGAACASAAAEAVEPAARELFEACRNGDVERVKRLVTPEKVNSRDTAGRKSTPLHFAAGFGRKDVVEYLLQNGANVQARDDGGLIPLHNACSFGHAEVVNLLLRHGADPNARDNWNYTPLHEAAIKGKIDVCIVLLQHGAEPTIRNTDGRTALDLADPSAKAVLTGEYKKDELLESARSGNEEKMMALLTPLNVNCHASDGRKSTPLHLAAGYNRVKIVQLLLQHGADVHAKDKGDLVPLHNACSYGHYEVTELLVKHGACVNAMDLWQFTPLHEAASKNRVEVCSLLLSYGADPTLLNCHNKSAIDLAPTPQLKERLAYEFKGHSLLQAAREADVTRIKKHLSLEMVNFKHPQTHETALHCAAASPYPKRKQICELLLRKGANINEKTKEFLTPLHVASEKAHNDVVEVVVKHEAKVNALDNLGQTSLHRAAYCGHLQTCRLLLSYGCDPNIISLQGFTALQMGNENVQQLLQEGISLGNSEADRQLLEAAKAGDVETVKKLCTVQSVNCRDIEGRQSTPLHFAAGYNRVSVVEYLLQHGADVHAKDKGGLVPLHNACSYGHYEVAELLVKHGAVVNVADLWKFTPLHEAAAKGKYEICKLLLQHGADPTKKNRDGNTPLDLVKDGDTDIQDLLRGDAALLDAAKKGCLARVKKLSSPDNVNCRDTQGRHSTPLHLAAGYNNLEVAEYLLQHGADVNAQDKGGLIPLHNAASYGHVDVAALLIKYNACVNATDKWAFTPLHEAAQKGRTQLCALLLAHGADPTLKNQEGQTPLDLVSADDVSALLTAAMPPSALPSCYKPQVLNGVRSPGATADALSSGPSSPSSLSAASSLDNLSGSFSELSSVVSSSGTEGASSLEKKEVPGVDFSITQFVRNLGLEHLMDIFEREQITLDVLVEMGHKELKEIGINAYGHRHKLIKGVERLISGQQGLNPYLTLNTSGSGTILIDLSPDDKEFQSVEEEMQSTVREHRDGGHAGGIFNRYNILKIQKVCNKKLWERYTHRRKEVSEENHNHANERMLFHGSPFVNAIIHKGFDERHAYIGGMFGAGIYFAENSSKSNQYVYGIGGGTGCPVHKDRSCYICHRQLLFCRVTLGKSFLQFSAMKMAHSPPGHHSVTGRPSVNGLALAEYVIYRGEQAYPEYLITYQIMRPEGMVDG
# ASSAY_DETAILS: Modified TNKS2 Assay 3 (BPS kit #80578, biotin-NAD+, 96 well)
# Assay type: biochemical
# TEST_CONTEXT: human TNKS2, BPS kit #80578, 96 well
# Procedure: The potency of the compounds against human TNKS2 according to the invention was assessed using a commercially available biotin/streptavidin binding assay kits from BPS Bioscience, San Diego, USA (Catalog #80578 for TNKS2). The incorporation of a biotin-labeled NAD+ during the […] catalyzed ribosylation of a suitable protein substrate was detected using with a streptavidin-HRP coupled chemi-luminescent readout. The intensity of the readout signal is proportional to the incorporated NAD^+. […]
ASSAY_ENDPOINT: pIC50
// field semantics: pIC50 = negative decimal log of concentration (mol/L)

## Input What value of pIC50 has been recorded for this entry: O=C(Nc1ccc(NC(=O)c2nc[nH]c2C(=O)NC2CCOC2)cc1)c1ccc(F)cc1Cl (stereo not shown) [Example 236]
## Output 7.10

## Input Field request: pIC50 | item: CCc1nc(C(=O)Nc2ccc(NC(=O)c3ccc(F)cc3Cl)cc2)c(C(=O)NCCN2CCCCC2)[nH]1 [Example 70]
## Output 7.70

## Input If you can, please state the reported pIC50 value of COCCNC(=O)c1[nH]cnc1C(=O)Nc1ccc(NC(=O)c2ccc(F)cc2Cl)cc1 [Example 130] .
## Output 6.77

## Input Look up pIC50 for this compound: CC(CN1CCOCC1)NC(=O)c1[nH]cnc1C(=O)Nc1ccc(NC(=O)c2ccc(F)cc2Cl)cc1 (single isomer, unassigned; enantiomer 2) [Example 270]
## Output 8.00

## Input Look up pIC50 for this compound: O=C(Nc1ccc(NC(=O)c2nc[nH]c2C(=O)NCCN2CCOCC2)cc1)c1ccc(F)cc1Cl [Example 227]
## Output 7.70

## Input Return reported pIC50; argument: CNC(=O)c1nc[nH]c1C(=O)Nc1ccc(NC(=O)c2c(F)cc(F)cc2Cl)cc1 [Example 118]
## Output 6.64

## Input Requested read-out: pIC50. Entry: CC1CCN(CCNC(=O)c2[nH]cnc2C(=O)Nc2ccc(NC(=O)c3ccccc3Cl)cc2)CC1 [Example 163]
## Output 8.00

## Input # get_value(readout='pIC50', item= O=C(Nc1ccc(NC(=O)c2nc[nH]c2C(=O)NCCCN2CCOCC2)cc1)c1ccc(F)cc1Cl [Example 204] )
## Output 7.70

## Input Would you mind telling me what pIC50 value was observed for CC(C)(N)CNC(=O)c1ncoc1C(=O)Nc1ccc(NC(=O)c2ccc(F)cc2Cl)cc1 [Example 219] ?
## Output 6.38

## Input pIC50 lookup needed for CNC(=O)c1nc[nH]c1C(=O)Nc1ccc(NC(=O)c2ccc(F)cc2Br)cc1 [Example 56] , thanks.
## Output 7.22

## Input Which pIC50 is reported for this compound? CC(CN1CCOCC1)NC(=O)c1[nH]cnc1C(=O)Nc1ccc(NC(=O)c2ccccc2Cl)cc1 (stereo not shown) [Example 162]
## Output 7.70

## Input Give the measured pIC50 of CNC(=O)c1[nH]c(C)nc1C(=O)Nc1ccc(NC(=O)c2ccc(F)cc2Cl)cc1 [Example 65] .
## Output 6.44

## Input Fill blank: measured pIC50 of the compound O=C(Nc1ccc(NC(=O)c2[nH]cnc2C(=O)NCCN2CCCCC2)cn1)c1ccc(F)cc1Cl [Example 110] is ____.
## Output 8.40
